- Method Description: Activators via SNCA 5'UTR binding, MLPCN (AID 1814)
- Condition Details: alpha-synuclein 5'UTR reporter, activators screen; hits give low values; tested at 7.5 µM
Out of some 300,000 compounds screened, about 22,000 (7.3%) were called active. Another 2% or so got no clear call; they are omitted. The sample as a whole holds a higher share of actives than the screen did.
Readout Type: activity score

Structure Notation: CCn1c(=N)n(CC(=O)c2cccc(OC)c2)c2ccccc21
Result: -124% (active)
--
Structure Notation: Cc1cc(=O)n2[nH]c(-c3cccc(Cl)c3)cc2n1
Result: -79% (active)
--
Structure Notation: COc1cccc(-c2nn(-c3ccccc3)cc2/C=C(\C#N)C(=O)NCCCn2ccnc2)c1
Result: -65.4% (active)
--
Structure Notation: CC(=O)NNC(=O)c1csc(Cc2c(Cl)sc3ccc(Cl)cc23)n1
Result: 67.1% (inactive)
--
Structure Notation: O=c1c2c(nc3cc(-c4cccc(Cl)c4)[nH]n13)CCCC2
Result: 18.5% (inactive)
--
Structure Notation: CCOC(=O)c1cn[nH]c1NC(=S)Nc1ccccc1
Result: -131% (active)

====

- Method Description: Activators via SNCA 5'UTR binding, MLPCN (AID 1814)
- Condition Details: alpha-synuclein 5'UTR reporter, activators screen; hits give low values; tested at 7.5 µM
Screen size: about 300,000 compounds; about 22,000 (7.3%) were called active. Not shown: some 2% with an inconclusive outcome. The sample as a whole holds a higher share of actives than the screen did.
Quick reference: activity score of the listed items.

Compound: CCOc1ccc(NC(=O)Nc2cc(C)ccc2OC)cc1
activity score: -78.4% (active)
//
Compound: CCOc1ccc(NC(=O)Nc2cc(C)on2)cc1
activity score: -128% (active)
//
Compound: O=C(Nc1ccc(F)cc1)c1cc2c(s1)CCCC2
activity score: -165% (active)
//
Compound: Cc1nc(C)c(-c2csc(NCCc3ccccc3)n2)s1
activity score: -84.7% (active)
//
Compound: CCOC(=O)c1ccc2c(c1)nc(C)n2CC
activity score: -141% (active)
//
Compound: COc1ccc(C(=O)/C=C/c2cccnc2)c(OC)c1
activity score: -81.3% (active)
//
Compound: CC(C)(C)c1ccc(/C=C/C(=O)Nc2ncccn2)cc1
activity score: -155% (active)
//
Compound: Cc1ccc(C)c(NC(CC(=O)c2ccccc2)C(=O)OCC(=O)c2cccs2)c1 (centres undefined)
activity score: -96.3% (active)
//
Compound: O=c1c(-c2cccc(Cl)c2)c[nH]n1-c1ccccc1
activity score: -74.9% (active)
//
Compound: COc1ccc2c(Cl)c(C(=O)NCc3ccco3)sc2c1
activity score: -164% (active)
//
Compound: CN(C)c1nc(=Nc2cccc(Cl)c2)ss1
activity score: -64.3% (active)
//
Compound: CCCOc1ccc(C(=O)C(CCC(CNCC)C(=O)c2ccc(OCCC)cc2)CNCC)cc1 (centres undefined)
activity score: 107% (inactive)
//
Compound: CC(=O)Nc1ccc(NC(=O)COc2ccccc2C(=O)Nc2cccc(Cl)c2Cl)cc1
activity score: 41.1% (inactive)
//
Compound: Cc1onc(-c2ccccc2Cl)c1C(=O)N(Cc1ccc(N(C)C)cc1)C(C)C
activity score: 73.1% (inactive)
//
Compound: O=C(COc1ccccc1)Nc1ccc(F)cc1
activity score: -69.2% (active)
//
Compound: O=C(Nc1ccc(Cl)cc1)/C(=C1\CCCN1)[N+](=O)[O-]
activity score: -97.2% (active)
//
Compound: O=C(COc1ccccc1)Nc1nonc1NC(=O)COc1ccccc1
activity score: -62.2% (active)
//
Compound: COc1ccc(-c2cn(-c3ccc(OC)cc3)c(=S)[nH]2)cc1
activity score: -129% (active)
//
Compound: CCOc1ccc(C(=O)Nc2cc(OC)ccc2OC)cc1
activity score: -88.9% (active)
//
Compound: CNS(=O)(=O)c1ccc(NC(=O)Nc2ccc3c(c2)OCO3)cc1
activity score: -63.6% (active)
//
Compound: O=c1oc2ccccc2cc1-c1cn(-c2ccccc2)c(=S)[nH]1
activity score: 119% (inactive)
//
Compound: COc1ccc(/C=C/C(=O)Nc2cccnc2)cc1OC
activity score: -72.4% (active)
//
Compound: COc1ccc2oc(C(=O)NCc3ccco3)c(C)c2c1
activity score: -92.6% (active)
//
Compound: COc1ccc(/C=C/C(=O)Nc2ccc(C34CC5CC(CC(O)(C5)C3)C4)cc2)cc1OC
activity score: 76.5% (inactive)
